testedOn: C-C chemokine receptor type 2 (Homo sapiens, UniProt P41597)
Sequence (P41597 whole entry): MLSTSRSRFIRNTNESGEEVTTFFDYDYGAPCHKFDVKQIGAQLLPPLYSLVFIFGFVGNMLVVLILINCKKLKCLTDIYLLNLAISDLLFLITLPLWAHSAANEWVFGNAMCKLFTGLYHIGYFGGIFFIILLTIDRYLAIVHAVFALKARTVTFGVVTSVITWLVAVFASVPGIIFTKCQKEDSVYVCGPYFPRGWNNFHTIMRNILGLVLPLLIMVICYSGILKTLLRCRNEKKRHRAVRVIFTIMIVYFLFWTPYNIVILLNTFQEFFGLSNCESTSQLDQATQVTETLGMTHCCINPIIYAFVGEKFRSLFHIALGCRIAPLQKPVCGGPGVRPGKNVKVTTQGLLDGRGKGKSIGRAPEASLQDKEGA
protocolText: Displacement of [125]MCP1 from CCR2 in human PBMCs
# pIC50 listing for each entry below
Scale for pIC50: -log10 of concentration given in mol/L; no unit attached.

smilesInput	testedOn	experimentalValue
CC(C)(C)NC(=O)[C@H](CNCc1ccc(Br)cc1)NC(=O)CNC(=O)c1cccc(C(F)(F)F)c1	C-C chemokine receptor type 2 (Homo sapiens, UniProt P41597)	5.77

Item: CCNC(=O)[C@H](CNCc1ccc(C)cc1C)NC(=O)CNC(=O)c1cccc(C(F)(F)F)c1 | System: C-C chemokine receptor type 2 (Homo sapiens, UniProt P41597) | pIC50: 6.96

Item: CNC(=O)[C@H](CNCc1ccc(C)cc1C)NC(=O)CNC(=O)c1cccc(C(F)(F)F)c1 | System: C-C chemokine receptor type 2 (Homo sapiens, UniProt P41597) | pIC50: 6.64

Item: Cc1ccc(CNC[C@H](NC(=O)CNC(=O)c2cccc(C(F)(F)F)c2)C(=O)O)c(C)c1 | System: C-C chemokine receptor type 2 (Homo sapiens, UniProt P41597) | pIC50: 5.26

Item: CC(C)(C)NC(=O)[C@H](CNCc1ccc(S(C)(=O)=O)cc1)NC(=O)CNC(=O)c1cccc(C(F)(F)F)c1 | System: C-C chemokine receptor type 2 (Homo sapiens, UniProt P41597) | pIC50: 5.14
